# System: Dermatophagoides farinae
# recorded conditions: 0.2 mg/tube, 48 hr
metric: Mortality (Means ± standard error, %)
Give the value in % but do not write % after it.

> print(dat)
                           compound                                 metric  unit.label  assay.result
1  C=CCN=C=S [allyl isothiocyanate]  Mortality (Means ± standard error, %)           %           9.0

Query compound follows.
The compound listed as CCCCN=C=S [butyl isothiocyanate] shows Mortality (Means ± standard error, %) equal to 3.0

====

# Tested on: Dermatophagoides pteronyssinus
# recorded conditions: 0.125 mg/tube, 48 hr
Reported Mortality (Means ± standard error, %) values follow for various compounds
Write the answer as a number in d %, unit excluded.

> print(dat)
          compound                     target.desc  unit.label  assay.result
1  OC/C=C/c1ccccc1  Dermatophagoides pteronyssinus         d %           3.0

Lab note: CCCCN=C=S [butyl isothiocyanate] gave Mortality (Means ± standard error, %) of 2.0

====

# Test system: Dermatophagoides pteronyssinus
# recorded conditions: 0.4 mg/tube, 48 hr
metric: Mortality (Means ± standard error, %) (b %)
# unit: b % | format: bare number

> print(dat)
                           molecule  assay.result
1  CCCCN=C=S [butyl isothiocyanate]          45.0
2  C=CCN=C=S [allyl isothiocyanate]          42.0

Looking up O=C/C=C/c1ccccc1 [trans-cinnamaldehyde] , I see its Mortality (Means ± standard error, %) listed as 42.0

====

Each entry below lists one item and its recorded Mortality (Means ± standard error, %) value.
# Tested on: Dermatophagoides farinae
# recorded conditions: 0.4 mg/tube, 48 hr

Value of measured Mortality (Means ± standard error, %) for the entry OC/C=C/c1ccccc1 : 65.0 ± 1.9ab %

The recorded Mortality (Means ± standard error, %) for entry C=CCN=C=S [allyl isothiocyanate] equals 46.0%

Reported Mortality (Means ± standard error, %) of CCCCN=C=S [butyl isothiocyanate] : 48.0%

====

# Tested on: Dermatophagoides farinae
# recorded conditions: 0.2 mg/tube, 24 hr
Measured Mortality (Means ± standard error, %), listed per entry.

Observed Mortality (Means ± standard error, %), Dermatophagoides farinae, O=C/C=C/c1ccccc1 [trans-cinnamaldehyde] : 19.0 ± 2.5cd %

Recorded Mortality (Means ± standard error, %) for CCCCN=C=S [butyl isothiocyanate] on Dermatophagoides farinae was 1.0 ± 1.0 e %

Value (Mortality (Means ± standard error, %), Dermatophagoides farinae) for record C=CCN=C=S [allyl isothiocyanate] = 6.0 ± 1.2 d %
